ASSAY_PROCEDURE: Bioluminescence emission spectra
Assay type: physicochemical
CONDITIONS_USED: emission spectrum with native coelenterazine
Recorded Wavelength (nm) peak, one value per entry.

MOLECULE	RESULT_UNITS	Wavelength (nm) peak
E44G/C124A: RLuc mutant E44G/C124A (protein) MASKVYDPEQRKRMITGPQWWARCKQMNVLDSFINYYDSEKHAGNAVIFLHGNAASSYLWRHVVPHIEPVARCIIPDLIGMGKSGKSGNGSYRLLDHYKYLTAWFELLNLPKKIIFVGHDWGAALAFHYSYEHQDKIKAIVHAESVVDVIESWDEWPDIEEDIALIKSEEGEKMVLENNFFVETMLPSKIMRKLEPEEFAAYLEPFKEKGEVRRPTLSWPREIPLVKGGKPDVVQIVRNYNAYLRASDDLPKMFIESDPGFFSNAIVEGAKKFPNTEFVKVKGLHFSQEDAPDEMGKYIKSFVERVLKNEQ	nm	486
A54G/A55G/C124A: RLuc mutant A54G/A55G/C124A (protein) MASKVYDPEQRKRMITGPQWWARCKQMNVLDSFINYYDSEKHAENAVIFLHGNGGSSYLWRHVVPHIEPVARCIIPDLIGMGKSGKSGNGSYRLLDHYKYLTAWFELLNLPKKIIFVGHDWGAALAFHYSYEHQDKIKAIVHAESVVDVIESWDEWPDIEEDIALIKSEEGEKMVLENNFFVETMLPSKIMRKLEPEEFAAYLEPFKEKGEVRRPTLSWPREIPLVKGGKPDVVQIVRNYNAYLRASDDLPKMFIESDPGFFSNAIVEGAKKFPNTEFVKVKGLHFSQEDAPDEMGKYIKSFVERVLKNEQ	nm	476

Data credit: patent US7842469B2
